Parameter: inhibition. Scope: all listed entries.
assay: yeast transport mutant growth inhibition pilot in 384-well plates, post-Golgi transport modulator project (AID 636); settings: absorbance 615 nm, about 18 h, active compounds read high; also: test concentration not given here
measure-name: inhibition (%)

In [3]: df
Out[3]:
                                    molecule  reported_measurement
 0  CCC(C)NC(=O)c1cc(CC(C)C)on1 (stereo unspecified)                 -0.26
 1  COCCn1c(SCC(=O)Nc2ccc3c(c2)OCCO3)nc2c(c1=O)SC(C)C2 (stereo unspecified)                 -1.07
 2      O=C(Nc1nnc(-c2ccc(Cl)cc2)o1)C1CCCCC1                  -7.2
 3   CCCCSc1nc2c(cnn2-c2ccc(F)cc2)c(=O)[nH]1                 -0.93
 4  COc1cccc(N2CCN(c3c4c(nc5ncnn35)CCC4)CC2)c1                 -4.55
 5  Cc1cc(C)cc(N2C(=O)CC(N3CCOCC3)C2=O)c1 (stereo unspecified)                 -1.89
 6               CCOc1ccc2[nH]c(C)cc(=O)c2c1                     0
 7  CCSc1nnc(N2C(=O)CC(c3ccsc3)C3=C2CC(C)(C)CC3=O)s1 (stereo unspecified)                 -6.67
 8  CCOC(=O)C1CCN(C(=O)CN(c2ccc(Cl)c(C(F)(F)F)c2)S(C)(=O)=O)CC1                 -0.65
 9  CCOC(=O)c1ccc(NC(=O)Cn2cc3c(n2)CCC(C)C3)cc1 (stereo unspecified)                  -2.8
10    COc1ccccc1N(CC(=O)Nc1cccnc1)S(C)(=O)=O                  0.81
